System: Leishmania donovani
Test: Leishmania intramacrophage assay
Format: functional, organism-based
Parameters: scale not given: in the data most compounds retested in dose-response had high values
Conditions: 30 µM; 30.03 µM
In all, about 69,000 compounds went through this assay and about 1,000 (1.4%) showed an effect of 50% or more. The sample as a whole holds a higher share of strong results than the screen did.
Classify by measured Percent Effect: Fulfilled if it is equal to or exceeds 20%, Not fulfilled if it is smaller.

Examples from the recorded data:
COc1ccc(CN2CCc3ncnc(C4CCOC4)c3CC2)cc1.O=C(O)C(F)(F)F (configuration not stated) | Fulfilled
CCN(C(=O)Nc1cccnc1OC)C1CC1 | Fulfilled
COCCCN1CCCN(C(C)c2nc(C3CC3)no2)CC1 (configuration not stated) | Fulfilled
Cc1ccc2c(c1)C1(CC2)CCN(c2nncs2)CC1 | Not fulfilled
O=C(N[C@@H]1CCNC[C@H]1O)c1ccc(F)c(Cl)c1 | Not fulfilled

Problem: Is it the case that Cc1ccc(CC(=O)N(C)CC2(O)CCN(c3ccccn3)C2)s1 (configuration not stated) has Percent Effect reaching or exceeding 20%?
Result: Fulfilled

Problem: Is it the case that O=C(c1ccc[nH]1)N1CCCC(c2cc(C(F)(F)F)[nH]n2)C1 (configuration not stated) has Percent Effect reaching or exceeding 20%?
Result: Fulfilled

Problem: Is it the case that Cc1cccc(CN2CCC3(CCN(c4ccccn4)C3)C2=O)c1.O=C(O)C(F)(F)F (configuration not stated) has Percent Effect reaching or exceeding 20%?
Result: Fulfilled

Problem: Is it the case that O=C1CC(c2cccnc2)c2c(c(C(=O)O)cn2-c2ccccc2)N1 (configuration not stated) has Percent Effect reaching or exceeding 20%?
Result: Not fulfilled

Problem: Is it the case that CS(=O)(=O)NCC1CCCN(C(=O)Nc2cccnc2N2CCCC2)C1 (configuration not stated) has Percent Effect reaching or exceeding 20%?
Result: Not fulfilled

Problem: Is it the case that O=C(O)C(F)(F)F.c1cncc(-c2ccc3c(c2)C2(CC3)CCN(c3nncs3)CC2)c1 has Percent Effect reaching or exceeding 20%?
Result: Fulfilled

Problem: Is it the case that COc1cc(/C=C/c2ncc(C(=O)O)s2)cc(Cl)c1O has Percent Effect reaching or exceeding 20%?
Result: Fulfilled

Hey, just so you know, these numbers are from ChEMBL document CHEMBL3988442.
